// reported IC50 for each item listed
biological target: USP7 (Homo sapiens, UniProt Q93009); construct: The USP7 construct was PCR amplified and cloned into a pFLAG-CMV-6a vector (Sigma-Aldrich) with an N-terminal FLAG tag; made in house; host or cells: HEK293T; experiment: USP7 biochemical IC50 assay (fluorescence polarisation, TAMRA labelled peptide linked to ubiquitin via an iso-peptide bond); conditions: 30 min pre-incubation of enzyme and compound, read after 2 hr incubation at room temperature, read-out: IC50 range
Sequence (Q93009 whole entry): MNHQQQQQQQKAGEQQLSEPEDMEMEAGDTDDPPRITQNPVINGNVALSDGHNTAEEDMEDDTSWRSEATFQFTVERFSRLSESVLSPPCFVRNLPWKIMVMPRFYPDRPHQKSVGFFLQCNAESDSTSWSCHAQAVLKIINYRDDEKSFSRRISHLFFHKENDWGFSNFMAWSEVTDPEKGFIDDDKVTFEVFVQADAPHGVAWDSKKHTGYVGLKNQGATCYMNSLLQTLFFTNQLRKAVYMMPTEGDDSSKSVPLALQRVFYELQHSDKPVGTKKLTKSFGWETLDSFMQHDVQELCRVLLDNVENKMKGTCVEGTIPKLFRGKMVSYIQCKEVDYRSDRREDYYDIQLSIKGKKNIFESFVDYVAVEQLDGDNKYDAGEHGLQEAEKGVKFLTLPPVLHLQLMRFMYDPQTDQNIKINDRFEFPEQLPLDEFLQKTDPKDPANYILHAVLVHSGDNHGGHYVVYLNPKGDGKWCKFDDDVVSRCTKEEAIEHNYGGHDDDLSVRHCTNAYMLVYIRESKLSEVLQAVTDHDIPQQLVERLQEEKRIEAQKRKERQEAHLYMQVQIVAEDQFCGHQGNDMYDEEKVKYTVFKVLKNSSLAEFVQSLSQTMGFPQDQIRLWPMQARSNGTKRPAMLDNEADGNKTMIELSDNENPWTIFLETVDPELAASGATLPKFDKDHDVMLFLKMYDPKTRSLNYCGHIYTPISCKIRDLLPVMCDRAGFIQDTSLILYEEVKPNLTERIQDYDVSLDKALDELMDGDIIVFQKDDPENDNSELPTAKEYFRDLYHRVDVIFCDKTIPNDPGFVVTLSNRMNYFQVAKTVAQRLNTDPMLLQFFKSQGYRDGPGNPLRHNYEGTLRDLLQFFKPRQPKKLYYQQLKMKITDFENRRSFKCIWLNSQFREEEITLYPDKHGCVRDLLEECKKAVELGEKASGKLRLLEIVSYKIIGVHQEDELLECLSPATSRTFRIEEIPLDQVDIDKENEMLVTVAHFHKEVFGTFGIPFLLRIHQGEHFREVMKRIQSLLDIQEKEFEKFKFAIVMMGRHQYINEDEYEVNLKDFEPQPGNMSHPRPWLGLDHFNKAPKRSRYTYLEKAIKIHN
Assay metric: IC50

[[record]]
molecule = "N#CN1Cc2nc(NC3CCOCC3)nc(-c3ccccc3)c2C1 [Example 189]"
assay_metric = "IC50"
val = "10 to 30 µM"

[[record]]
molecule = "CNC(=O)NCc1cc2c(c(-c3ccc(C#N)cc3C#N)c1)CN(C#N)C2 [Example 228]"
assay_metric = "IC50"
val = "1 to 10 µM"

[[record]]
molecule = "CC(=O)N1CCCC(C(=O)Nc2cc3c(c(-c4ccccc4)c2)CN(C#N)C3)C1 (centres unmarked) [Example 45]"
assay_metric = "IC50"
val = "1 to 10 µM"

[[record]]
molecule = "N#Cc1ccc(-c2cc(CNC(=O)C3CCS(=O)(=O)CC3)cc3c2CN(C#N)C3)cc1 [Example 220]"
assay_metric = "IC50"
val = "1 to 10 µM"

[[record]]
molecule = "CC(=O)N1CCC(C(=O)Nc2cc3c(c(-c4ccccc4)c2)CN(C#N)C3)CC1 [Example 47]"
assay_metric = "IC50"
val = "< 1 µM"

[[record]]
molecule = "Cn1nccc1CNc1nc2c(c(N3CCc4ccccc4C3)n1)CN(C#N)C2 [Example 198]"
assay_metric = "IC50"
val = "1 to 10 µM"

[[record]]
molecule = "CN(C)C(=O)Cc1cc2c(c(-c3ccccc3)c1)CN(C#N)C2 [Example 251]"
assay_metric = "IC50"
val = "1 to 10 µM"

[[record]]
molecule = "CN1CCC[C@@H](C(=O)Nc2cc3c(c(-c4ccncc4)c2)CN(C#N)C3)C1 [Example 163]"
assay_metric = "IC50"
val = "1 to 10 µM"


----------
biological target: USP7 (Homo sapiens); construct: The USP7 construct was PCR amplified and cloned into a pFLAG-CMV-6a vector (Sigma-Aldrich) with an N-terminal FLAG tag; made in house; host or cells: HEK293T; experiment: USP7 biochemical IC50 assay (fluorescence polarisation, TAMRA labelled peptide linked to ubiquitin via an iso-peptide bond); conditions: 30 min pre-incubation of enzyme and compound, read after 2 hr incubation at room temperature, read-out: IC50 range
Assay metric: IC50

[[record]]
compound_structure_string = "CNC(=O)c1ccc(-c2cc(NC(=O)[C@@H]3CCCN(C)C3)cc3c2CN(C#N)C3)cc1"
val = "< 1000 nM"

[[record]]
compound_structure_string = "N#Cc1ccc(-c2cc(NCC3CCOCC3)cc3c2CN(C#N)C3)cc1"
val = "< 1000 nM"

[[record]]
compound_structure_string = "N#CN1Cc2ccnc(-c3ccccc3)c2C1"
val = "1000 to 10000 nM"


----------
biological target: USP7 (Homo sapiens, UniProt Q93009); construct: The USP7 construct was PCR amplified and cloned into a pFLAG-CMV-6a vector (Sigma-Aldrich) with an N-terminal FLAG tag; made in house; host or cells: HEK293T; assay: USP7 biochemical IC50 assay (fluorescence polarisation, TAMRA labelled peptide linked to ubiquitin via an iso-peptide bond); details: 30 min pre-incubation of enzyme and compound, read after 2 hr incubation at room temperature, read-out: IC50 range
pIC50: −log10 of the molar value.
Assay metric: pIC50

[[record]]
molecule = "N#CN1Cc2cccc(-c3cccc(C(=O)Nc4ccccc4)c3)c2C1"
val = "5.00 to 6.00"

[[record]]
molecule = "N#CN1Cc2nc(-c3cn[nH]c3)nc(N3CCc4ccccc4C3)c2C1"
val = "5.00 to 6.00"

[[record]]
molecule = "N#CN1Cc2nc(NCCO)nc(N3CCC(Oc4ccccc4)CC3)c2C1"
val = "5.00 to 6.00"

[[record]]
molecule = "N#CN1Cc2nc(NCC(O)CO)cc(-c3ccc(F)cc3)c2C1 (stereo not drawn)"
val = "5.00 to 6.00"

[[record]]
molecule = "N#CN1Cc2cccc(C(=O)NCc3ccccc3)c2C1"
val = "4.52 to 5.00"

[[record]]
molecule = "N#CN1Cc2cccc(-c3ccccc3C(=O)N3CCCC3)c2C1"
val = "4.52 to 5.00"


----------
molecular target: USP7 (Homo sapiens); construct: The USP7 construct was PCR amplified and cloned into a pFLAG-CMV-6a vector (Sigma-Aldrich) with an N-terminal FLAG tag; made in house; host or cells: HEK293T; assay: USP7 biochemical IC50 assay (fluorescence polarisation, TAMRA labelled peptide linked to ubiquitin via an iso-peptide bond); conditions: 30 min pre-incubation of enzyme and compound, read after 2 hr incubation at room temperature, read-out: IC50 range
// reported IC50 for each item listed
Assay metric: IC50

[[record]]
compound = "Cn1cc(-c2nc3c(c(N4CCc5ccccc5C4)n2)CN(C#N)C3)cn1"
assay_metric = "IC50"
val = "1 to 10 µM"

[[record]]
compound = "N#CN1Cc2nc(NCc3ccco3)nc(-c3ccccc3)c2C1"
assay_metric = "IC50"
val = "10 to 30 µM"

[[record]]
compound = "CNC(=O)c1cc2c(c(-c3ccc(C#N)cc3C#N)c1)CN(C#N)C2"
assay_metric = "IC50"
val = "1 to 10 µM"

[[record]]
compound = "CN1CCOC(CN(C)c2nc3c(c(-c4ccccc4)n2)CN(C#N)C3)C1 (stereo not drawn)"
assay_metric = "IC50"
val = "1 to 10 µM"

[[record]]
compound = "N#CN1Cc2cccc(-c3cccc4c3C(=O)NC4)c2C1"
assay_metric = "IC50"
val = "1 to 10 µM"

[[record]]
compound = "CC(=O)Nc1ccc2c(c1-c1ccccc1)CN(C#N)C2"
assay_metric = "IC50"
val = "1 to 10 µM"

[[record]]
compound = "Cc1nc2ccc(-c3cc(NC(=O)[C@@H]4CCCN(C)C4)cc4c3CN(C#N)C4)cc2o1"
assay_metric = "IC50"
val = "< 1 µM"

[[record]]
compound = "COCc1ccc(C(=O)Nc2cccc3c2CN(C#N)C3)cc1"
assay_metric = "IC50"
val = "10 to 30 µM"

[[record]]
compound = "N#CN1Cc2cc(NC(=O)C3CN(Cc4ccccc4)CCO3)cc(-c3ccccc3)c2C1 (stereo not drawn)"
assay_metric = "IC50"
val = "1 to 10 µM"

[[record]]
compound = "N#Cc1cc(-c2cn[nH]c2)ccc1-c1cccc2c1CN(C#N)C2"
assay_metric = "IC50"
val = "1 to 10 µM"

[[record]]
compound = "N#Cc1ccc(-c2cc(N3CCS(=O)(=O)CC3)cc3c2CN(C#N)C3)cc1"
assay_metric = "IC50"
val = "1 to 10 µM"

[[record]]
compound = "Cc1[nH]ncc1-c1nc2c(c(N3CCc4cccnc4C3)n1)CN(C#N)C2"
assay_metric = "IC50"
val = "1 to 10 µM"

[[record]]
compound = "N#CN1Cc2nc(NCC3CCOCC3)nc(N3CCc4ccccc4C3)c2C1"
assay_metric = "IC50"
val = "1 to 10 µM"

[[record]]
compound = "N#CN1Cc2cc(NC(=O)CCc3cccnc3)cc(-c3ccccc3)c2C1"
assay_metric = "IC50"
val = "1 to 10 µM"

[[record]]
compound = "N#CN1Cc2cc(NC(=O)C3CCNCC3)cc(-c3ccccc3)c2C1"
assay_metric = "IC50"
val = "1 to 10 µM"

[[record]]
compound = "CN(CCO)c1nc2c(c(-c3ccccc3)n1)CN(C#N)C2"
assay_metric = "IC50"
val = "1 to 10 µM"

[[record]]
compound = "CNC(=O)C1CCCN1c1nc(-c2ccccc2)nc2c1CN(C#N)C2 (stereo not drawn)"
assay_metric = "IC50"
val = "10 to 30 µM"

[[record]]
compound = "CN1CCOC(CNc2nc3c(c(-c4cccc(F)c4)n2)CN(C#N)C3)C1 (stereo not drawn)"
assay_metric = "IC50"
val = "1 to 10 µM"

[[record]]
compound = "CC(=O)NCc1cc2c(c(-c3ccc(C#N)cc3C#N)c1)CN(C#N)C2"
assay_metric = "IC50"
val = "1 to 10 µM"

[[record]]
compound = "N#CN1Cc2nc(NCc3cccnc3)nc(-c3ccccc3)c2C1"
assay_metric = "IC50"
val = "1 to 10 µM"

[[record]]
compound = "N#CN1Cc2ncnc(N3CCC(Oc4cccnc4)CC3)c2C1"
assay_metric = "IC50"
val = "10 to 30 µM"

[[record]]
compound = "CC(=O)N(C)Cc1cc2c(c(-c3ccc(C#N)cc3)c1)CN(C#N)C2"
assay_metric = "IC50"
val = "1 to 10 µM"

[[record]]
compound = "CN1CC(c2cc3c(c(-c4ccccc4)c2)CN(C#N)C3)CCC1=O (stereo not drawn)"
assay_metric = "IC50"
val = "1 to 10 µM"

[[record]]
compound = "N#CN1Cc2nc(Cl)nc(-c3ccc(F)cc3)c2C1"
assay_metric = "IC50"
val = "10 to 30 µM"

[[record]]
compound = "CC(O)CNc1cc2c(c(-c3ccc(C#N)cc3)c1)CN(C#N)C2 (stereo not drawn)"
assay_metric = "IC50"
val = "1 to 10 µM"

[[record]]
compound = "N#CN1Cc2nc(-c3cccnc3)nc(N3CCCC3)c2C1"
assay_metric = "IC50"
val = "1 to 10 µM"

[[record]]
compound = "N#Cc1ccc(N2CCOC2=O)cc1-c1cccc2c1CN(C#N)C2"
assay_metric = "IC50"
val = "1 to 10 µM"

[[record]]
compound = "COc1cccc(-c2nc3c(c(N4CCCC4)n2)CN(C#N)C3)c1"
assay_metric = "IC50"
val = "30 to 100 µM"

[[record]]
compound = "CN1CCC(c2cccc3c2CN(C#N)C3)CC1"
assay_metric = "IC50"
val = "30 to 100 µM"

[[record]]
compound = "CCNc1cc2c(c(-c3ccc(C#N)cc3)c1)CN(C#N)C2"
assay_metric = "IC50"
val = "1 to 10 µM"

